System: T1, biotin-labeled human CD137 fused to human IgG1 Fc fragment (human, biotin-labeled)
T1 construct: also called human CD137-Fc; biotin-human CD137-Fc
Test details: bead ELISA (chemiluminescence), IgG on biotin-human CD137-Fc on streptavidin beads; control competitor free human Fc 62.5 pmol
Quantity kind: ELISA signal with Free Fc 62.5 pmol

[
  {
    "Binder": "dBBDu_H115/L016 (antibody, human IgG1, V domains shown, Full length IgG (human IgG1 CH1-Fc heavy chain, kappa light chain)) VH: QVQLVESGGGLVQPGRSLRLSCAASGFTFSNAWMHWVRQAPGKGLEWVAQIKDKANSYNTYYAPSVKGRFTISRDDSKNSIYLQMNSLKTEDTAVYYCRYVHYGSSYGFLFAGYGVDAWGQGTTVTVSS VL: DIVMTQSPMSLPVTPGEPASISCQSSESLLHANRNTYLHWYQQKPGQAPRLLIYKVSNRFNGVPDRFSGSGSGTDFTLKISRVEAEDVGVYYCAQGTANPYTFGQGTKLEIK",
    "Quantity kind": "ELISA signal with Free Fc 62.5 pmol",
    "Observed value": 46800
  },
  {
    "Binder": "dBBDu_H115/L039 (antibody, human IgG1, V domains shown, Full length IgG (human IgG1 CH1-Fc heavy chain, kappa light chain)) VH: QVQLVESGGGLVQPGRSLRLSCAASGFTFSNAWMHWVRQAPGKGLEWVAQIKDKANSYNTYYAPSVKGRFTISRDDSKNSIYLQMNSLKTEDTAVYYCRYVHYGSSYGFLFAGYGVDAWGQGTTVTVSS VL: DIVMTQSPLSLPVTPGEPASISCTSSQSLLHANRNTYLHWYQQKPGQAPRLLIYKVSNRFSGVPDRFSGSGSGTDFTLKISRVEAEDVGVYYCAQGTSAPFTFGQGTKLEIK",
    "Quantity kind": "ELISA signal with Free Fc 62.5 pmol",
    "Observed value": 55800
  },
  {
    "Binder": "dBBDu_H115/L014 (antibody, human IgG1, V domains shown, Full length IgG (human IgG1 CH1-Fc heavy chain, kappa light chain)) VH: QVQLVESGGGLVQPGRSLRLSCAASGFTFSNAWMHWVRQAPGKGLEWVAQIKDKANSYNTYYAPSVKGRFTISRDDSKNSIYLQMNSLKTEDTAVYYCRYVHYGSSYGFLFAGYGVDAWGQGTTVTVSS VL: DIVMTQSPLSLPVTPGEPASISCTSSQSLLHQNRNTYLHWYQQKPGQAPRLLIYKVSNRFNGVPDRFSGSGSGTDFTLKISRVEAEDVGVYYCAQGTANPFTFGQGTKLEIK",
    "Quantity kind": "ELISA signal with Free Fc 62.5 pmol",
    "Observed value": 72100
  },
  {
    "Binder": "dBBDu_H115/L008 (antibody, V domains shown, Full length IgG (human IgG1 CH1-Fc heavy chain, kappa light chain); also called Du115/DUL008) VH: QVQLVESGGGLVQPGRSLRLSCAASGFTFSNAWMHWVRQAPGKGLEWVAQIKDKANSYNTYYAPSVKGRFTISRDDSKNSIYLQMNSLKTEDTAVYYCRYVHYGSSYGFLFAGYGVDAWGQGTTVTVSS VL: DIVMTQSPLSLPVTPGEPASISCQSSEELLHANRKTYLHWYQQKPGQAPRLLIYKVQNRFSGVPDRFSGSGSGTDFTLKISRVEAEDVGVYYCAQGTATPFTFGQGTKLEIK",
    "Quantity kind": "ELISA signal with Free Fc 62.5 pmol",
    "Observed value": 76900
  }
]
